assay: inhibitors of TNFa-induced NFkB p65 translocation, primary screen, imaging, HUVEC, MLSMR starter and 10KST1 sets (AID 438); details: HUVEC TNFa-induced p65 nuclear translocation; measured here: nuclei count (cytotoxicity indicator), at 2.08 µM;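 further: compound added about 3h40 before a 20 min TNFalpha stimulation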
Mark N for cell count values under 600, and Y for everything at or above.

INSERT INTO measurements (compound, category) VALUES
  ('COc1ccc(CCNC(=O)c2c(N)n(CCN3CCOCC3)c3nc4ccccc4nc23)cc1', 'N'),
  ('CC(=O)OC1(c2ccc(C)cc2)CN2CCC1c1ccccc12 (stereo unspecified)', 'N'),
  ('O=c1[nH]c(=O)n(CCc2ccc(F)cc2)c(O)c1C=NCCCn1ccnc1', 'N'),
  ('COc1cccc(-n2c(C)nc3ccccc3c2=O)c1', 'N'),
  ('Nc1c(C(=O)NCc2ccco2)c2nc3ccccc3nc2n1CCN1CCCCC1', 'Y'),
  ('C[C@H]1CCC/C=C/C2C[C@H](O)CC2[C@H](O)/C=C/C(=O)O1 (stereo partly specified)', 'Y');

----------
assay: endothelial E-selectin expression blockers – imaging, HUVEC, immunofluorescence, MLSMR starter and 10KST1 sets, primary screen (AID 487); settings: HUVEC TNFalpha-induced E-selectin immunofluorescence imaging, at 2 µM; stronger effect = higher value;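 further: signal is fraction of cell area covered by stained E-selectin grains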
Mark criterion not met for inhibition values under -20%, and criterion met for everything at or above.

INSERT INTO measurements (compound, category) VALUES
  ('O=C(O)Cn1cc(C(=O)c2ccccc2)c2ccccc21', 'criterion not met'),
  ('CC(C)(C)P(=O)(c1ccncc1)N1CCCC1 (stereo unspecified)', 'criterion not met'),
  ('COc1ccc(CC[n+]2cc(/N=C(\C)[O-])on2)cc1OC', 'criterion met'),
  ('COc1ccc(OC)c([C@@H](O)[C@H](C)NC(C)(C)C)c1', 'criterion not met'),
  ('Cc1cccc(-n2c(-c3ccco3)nc3ccccc3c2=O)n1', 'criterion met'),
  ('CCCc1nc2ccccc2c(=O)n1-c1ccccc1OC', 'criterion not met');

----------
test: inhibitors of larval lipid processing in zebrafish, primary screen, whole organism, PED6 fluorescence, gall bladder and intestine (AID 686); conditions: Zebrafish larvae PED6 lipid processing, fluorescence scoring;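 further: larvae 5 to 7 days old with five fish per well; signal comes from phospholipase A2 cleavage of quenched PED6 carried via bile; overnight exposure to compound and PED6 before scoring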
Calls of active or inactive are those of the source.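 How the source made its calls: active means a full or partial loss of lipid-probe fluorescence in the fish gall bladder, intestine or both, judged by eye; inactive means no fluorescence loss, or compound toxic to the fish.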
quantityMeasured: outcome

INSERT INTO results (compound, quantitymeasured, result) VALUES
  ('O=C1CC[C@@]2(O)[C@H]3Cc4ccc(O)c5c4[C@@]2(CCN3CC2CC2)[C@H]1O5', 'outcome', 'inactive'),
  ('O=C1c2ccccc2C(=O)N1Cc1nc2ccccc2c(=O)n1-c1cccnc1', 'outcome', 'inactive'),
  ('Cc1ccc(-n2c(O)c(C=NCCN3CCOCC3)c(=O)[nH]c2=O)cc1', 'outcome', 'inactive'),
  ('CCOc1ccc(Cc2c(O)[nH]c(=O)[nH]c2=O)cc1', 'outcome', 'inactive'),
  ('C[C@H]1CCCC(=O)CCCCCc2cc(O)cc(O)c2C(=O)O1', 'outcome', 'inactive'),
  ('OC(CNC1CCCCC1)c1ccccc1 (stereo not given)', 'outcome', 'inactive'),
  ('NCC1(c2ccc3c(c2)OCCO3)CCCC1', 'outcome', 'inactive'),
  ('CC1=NOC2(C)Nc3ncnn3C(c3ccccc3)C12 (stereo not given)', 'outcome', 'inactive'),
  ('CCCCCCn1c(O)c(C=Nc2c(C)n(C)n(-c3ccccc3)c2=O)c(=O)[nH]c1=O', 'outcome', 'inactive'),
  ('CC(C)N(CCC(C(N)=O)(c1ccccc1)c1ccccn1)C(C)C (stereo not given)', 'outcome', 'inactive'),
  ('CCCCNC(=O)Nc1ccc(C(O)(C(=O)OC)C(F)(F)F)cc1 (stereo not given)', 'outcome', 'inactive'),
  ('CNCCc1c[nH]c2ccccc12', 'outcome', 'inactive'),
  ('OC(Cc1ccccc1)(c1ccccc1)C1CN2CCC1CC2 (stereo not given)', 'outcome', 'inactive'),
  ('CC(=O)OC1N=C(c2ccccc2)c2ccccc2NC1=O (stereo not given)', 'outcome', 'inactive'),
  ('CC(=NCCO)c1c(O)n(C)c(=O)n(C)c1=O', 'outcome', 'inactive'),
  ('CCN(CC)c1ccc(N=Cc2c(O)n(-c3ccccc3C)c(=O)[nH]c2=O)cc1', 'outcome', 'inactive'),
  ('O=c1[nH]c(=O)n(CCc2ccccc2)c(O)c1C=NCCCn1ccnc1', 'outcome', 'inactive'),
  ('COc1ccc(C(=O)N2CCCC2=O)cc1', 'outcome', 'inactive'),
  ('[N-]=[N+]=CC(=O)OC[C@H](N)C(=O)O', 'outcome', 'inactive'),
  ('COC1=CC(=O)OC(/C=C/c2ccccc2)C1 (stereo not given)', 'outcome', 'inactive'),
  ('COP(=O)(OC)C(O)C(Cl)(Cl)Cl (stereo not given)', 'outcome', 'inactive'),
  ('Cn1c(O)c(C(=O)c2ccccc2Cl)c(=O)n(C)c1=O', 'outcome', 'inactive');

----------
Below is a list of entries, each paired with its recorded inhibition value.
assay: blockers of RIG-like receptor reporter activation – cell-based, Sendai virus stimulus, luciferase, 10K MLSCN set, TLR/RLR signaling modifier project, primary screen (AID 602276); settings: HEK293 RL24 IRF3 luciferase reporter, at 10 µM, stronger effect = higher value;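 further: firefly luciferase from ISG56 promoter only with Renilla not read in this screen; 0% = Sendai virus plus DMSO and 100% = medium plus DMSO without virus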
quantityMeasured: inhibition (%)

INSERT INTO assay_data (compound, endpointunit, numericresult) VALUES
  ('Nc1ccc(C2(c3ccc(N)cc3)CN3CCC2CC3)cc1', '%', 2.43),
  ('Cc1ccc(-n2c(O)c(C=NCCN3CCOCC3)c(=O)[nH]c2=O)cc1', '%', 15.1),
  ('O=C1CC(N2CCC(n3c(=O)[nH]c4ccccc43)CC2)C(=O)N1c1ccc(F)cc1 (stereo not given)', '%', 6.41),
  ('CC(NC(C)(C)C)C(=O)c1cccc(Cl)c1 (stereo not given)', '%', 11.7),
  ('CCOc1ccc(-n2c(O)c(C=NCCN3CCNCC3)c(=O)[nH]c2=O)cc1', '%', 14.4),
  ('C#C[C@]1(O)CC[C@H]2[C@@H]3CCC4=CC(=O)CC[C@]4(C)[C@H]3CC[C@@]21C', '%', 9.99),
  ('CCCCCCn1c(O)c(C=NC2CCN(Cc3ccccc3)CC2)c(=O)[nH]c1=O', '%', 11.7),
  ('COc1ccccc1N(CC(=O)NC1CCCCC1)C(=O)c1cnn(C(C)C)c1', '%', -9.99),
  ('CCCCNC(=O)c1c(N)n(CCCOC)c2nc3ccccc3nc12', '%', -5.16),
  ('COC(=O)C1C2c3ccccc3OC1(C)N=c1s/c(=C/c3cnn(C)c3C)c(=O)n12 (stereo not given)', '%', 15.6);

----------
experiment: loss of swimming-algae plug formation – whole organism, Chlamydomonas reinhardtii, WT vs cilia-less mutant, absorbance, 96-well, primary screen (AID 463189); settings: Chlamydomonas reinhardtii gravitaxis, OD600 absorbance, 2 days; at 10 µM; stronger effect = higher value;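 further: 0% = wild type cc124 cells in DMSO and 100% = ciliumless bld1 mutant cells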
quantityMeasured: inhibition (%)

INSERT INTO assay_data (molecule, endpointunit, numericresult) VALUES
  ('Nc1ccc(CCN2CCN(c3cccc(C(F)(F)F)c3)CC2)cc1', '%', 40.5),
  ('COc1ccc2c(c1OC)C(=O)O[C@H]2[C@@H]1c2cc3c(cc2CCN1C)OCO3', '%', -6.11),
  ('C=CCN1CCc2cccc3c2[C@H]1Cc1ccc(O)c(O)c1-3', '%', 6.2),
  ('NCC1(c2ccc3c(c2)OCCO3)CCCC1', '%', -6.44),
  ('NC(Cn1oc(=O)[nH]c1=O)C(=O)O (configuration not stated)', '%', -0.927),
  ('COP(=O)(OC)C(O)C(Cl)(Cl)Cl (configuration not stated)', '%', 12.4),
  ('NC(=O)CN1CC(O)CC1=O (configuration not stated)', '%', 9.01);

----------
assay: reduction of polyQ htt aggregates in cells – imaging, exon1htt(103Q)mCFP cells, high-content imaging, primary screen (AID 483); conditions: exon1htt(103Q)mCFP cell line, aggregate imaging, at 2 µM; measured here: cell count, toxicity;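 further: compound exposure lasted 3 days before fixation; percent of the per-plate median nuclei count of sample wells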
Below is a list of entries, each paired with its recorded nuclei count value.
quantityMeasured: nuclei count (%)

INSERT INTO results (compound, numericresult) VALUES
  ('Cc1ccc2nc(N3CCN(C)CC3)[nH]c2c1', 87.6),
  ('O=C(CN1CCN(Cc2cccc(Cl)c2)C1=O)N1CCC2(CC1)OCCO2', 73.9),
  ('O=C1C2CCCN2C(c2ccc(Cl)c(Cl)c2)N1c1ccccn1 (stereo not given)', 98.4),
  ('N#Cc1ccccc1Cn1cc(C(=O)c2ccco2)c2ccccc21', 76.5),
  ('NCCc1ccc(O)cc1', 95.7),
  ('CCCC(=O)OCC[N+](C)(C)C', 111),
  ('C=C1CC[C@@]2(O)[C@H]3Cc4ccc(O)c5c4[C@@]2(CCN3CC2CC2)[C@H]1O5', 99.2),
  ('c1ccc(Cn2ccnc2)cc1', 94.6),
  ('CN(C)CCN=Cc1c(O)n(-c2cccc3ccccc23)c(=O)[nH]c1=O', 107),
  ('CCN1CCN(C(=O)COc2cc(=O)n(CC)c3ccccc23)CC1', 99.2),
  ('N#Cc1ccccc1Cn1cc(C(=O)C2CC2)c2ccccc21', 101),
  ('Nc1ccc(C2(c3ccc(N)cc3)CN3CCC2CC3)cc1', 104),
  ('CNCCc1c[nH]c2ccccc12', 103),
  ('CCCCn1c(O)c(C(C)=NC(Cc2c[nH]c3ccccc23)C(=O)OC)c(=O)[nH]c1=O (stereo not given)', 79.6),
  ('CC1(C)Cc2c(sc3c2C(=O)NC(c2cccnc2)N3)CO1 (stereo not given)', 98.3),
  ('CC(C)(C)C(O)C(Oc1ccc(Cl)cc1)n1cncn1 (stereo not given)', 93),
  ('CC(C)(C)P(=O)(c1ccncc1)N1CCCC1 (stereo not given)', 113),
  ('CSc1ccc(C(=O)C(C)(C)N2CCOCC2)cc1', 102),
  ('O=C1OCCC1NC1=NCCC1 (stereo not given)', 106),
  ('CCCC(C)C1C(C#N)=C(N)Oc2c1c(=O)oc1ccccc21 (stereo not given)', 86.4),
  ('N=C(N)c1c(O)n(C2CCCCC2)c(=O)n(C2CCCCC2)c1=O', 102),
  ('COc1cc(C2NCc3ccccc3-n3cccc32)ccc1O (stereo not given)', 123),
  ('CC(=O)[C@@]1(O)CC[C@H]2[C@@H]3CC=C4C[C@@H](O)CC[C@]4(C)[C@H]3CC[C@@]21C', 99.3),
  ('c1ccc(C2CC3CC(c4ccco4)N2O3)cc1 (stereo not given)', 108),
  ('O=C(c1ccncc1)C12CN3CN(CN(C3)C1)C2', 104);
